Each recorded value in this set is attributed to patent US20240084003A1.

Target: T1, human CD22-ECD-His protein (human, UniProt P20273 20-687)
T1 construct: Made in house in HEK293E; also called hCD22-ECD-His; recombinant human CD22-ECD His protein; not shown: His tag
T1 sequence: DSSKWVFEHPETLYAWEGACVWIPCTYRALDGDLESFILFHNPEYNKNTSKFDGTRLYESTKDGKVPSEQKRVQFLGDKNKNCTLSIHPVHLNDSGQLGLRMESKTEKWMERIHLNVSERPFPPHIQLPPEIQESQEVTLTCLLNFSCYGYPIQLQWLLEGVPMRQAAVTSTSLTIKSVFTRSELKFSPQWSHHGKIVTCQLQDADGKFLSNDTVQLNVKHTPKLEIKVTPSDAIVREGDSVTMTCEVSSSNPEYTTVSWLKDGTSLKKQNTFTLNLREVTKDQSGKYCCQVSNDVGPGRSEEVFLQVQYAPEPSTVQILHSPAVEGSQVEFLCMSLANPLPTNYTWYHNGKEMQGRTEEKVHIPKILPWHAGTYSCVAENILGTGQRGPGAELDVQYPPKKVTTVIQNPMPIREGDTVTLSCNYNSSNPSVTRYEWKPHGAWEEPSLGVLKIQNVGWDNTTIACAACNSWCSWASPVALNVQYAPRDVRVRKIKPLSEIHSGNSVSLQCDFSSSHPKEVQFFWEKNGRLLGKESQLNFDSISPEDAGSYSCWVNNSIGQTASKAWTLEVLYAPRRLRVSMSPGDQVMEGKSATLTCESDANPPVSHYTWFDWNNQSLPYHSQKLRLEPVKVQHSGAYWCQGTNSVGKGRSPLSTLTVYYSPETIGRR
Assay: ELISA, Ab 0.0001 nM
property name: OD450

binder="F1.250.16 (antibody, human IgG1, kappa, V domains shown, Human-murine chimeric IgG1, kappa) VH: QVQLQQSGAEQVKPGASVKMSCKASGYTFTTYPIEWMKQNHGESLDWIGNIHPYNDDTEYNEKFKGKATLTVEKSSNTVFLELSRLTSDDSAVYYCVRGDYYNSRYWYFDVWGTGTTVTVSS VL: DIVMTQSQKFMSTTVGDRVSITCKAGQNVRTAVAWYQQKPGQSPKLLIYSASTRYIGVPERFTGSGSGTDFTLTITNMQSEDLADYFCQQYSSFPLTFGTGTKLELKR" property_name=OD450 reported="0.21 OD450"
binder="F2.127.11 (antibody, human IgG1, lambda, V domains shown, Human-murine chimeric IgG1, lambda) VH: QVTLKESGPGILQPSQTLSLTCSFSGFSLSTFGMGVGWIRQPSGKGLEWLAHIWWDDDKHYNPALKSRLTISKDTSRNQVFLKIANVDTADGATYFCARDNWVSSLDYWGQGTSVIVSS VL: QPVITQSSSASFSLGASAELTCTLSSQHSTYTIEWYQQQPLKPPKYVMGLKKDGSHSTGDGIPDRFSGSSSGADRYLSISNIQPEDEAIYICGVSDTIKEQFVYVFGGGTKVTVLG" property_name=OD450 reported="0.26 OD450"
binder="F1.192.1 (antibody, human IgG1, kappa, V domains shown, Human-murine chimeric IgG1, kappa) VH: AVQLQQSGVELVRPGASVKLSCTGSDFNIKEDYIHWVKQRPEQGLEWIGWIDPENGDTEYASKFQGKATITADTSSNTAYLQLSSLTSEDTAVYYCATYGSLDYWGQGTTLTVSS VL: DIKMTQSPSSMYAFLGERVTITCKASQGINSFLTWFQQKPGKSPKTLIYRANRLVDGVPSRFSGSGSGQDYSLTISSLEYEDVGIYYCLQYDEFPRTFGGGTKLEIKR" property_name=OD450 reported="0.1 OD450"
binder="F1.200.11 (antibody, human IgG1, kappa, V domains shown, Human-murine chimeric IgG1, kappa) VH: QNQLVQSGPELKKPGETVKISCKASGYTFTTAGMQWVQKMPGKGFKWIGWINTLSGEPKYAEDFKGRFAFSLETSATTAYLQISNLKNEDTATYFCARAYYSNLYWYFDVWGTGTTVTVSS VL: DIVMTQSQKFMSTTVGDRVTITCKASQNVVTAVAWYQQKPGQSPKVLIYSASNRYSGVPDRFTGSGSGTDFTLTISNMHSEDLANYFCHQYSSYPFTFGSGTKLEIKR" property_name=OD450 reported="0.51 OD450"
binder="F1.267.9 (antibody, human IgG1, kappa, V domains shown, Human-murine chimeric IgG1, kappa) VH: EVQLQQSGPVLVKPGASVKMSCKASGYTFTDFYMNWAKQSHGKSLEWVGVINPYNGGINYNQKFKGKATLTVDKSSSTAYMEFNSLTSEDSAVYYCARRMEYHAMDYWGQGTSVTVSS VL: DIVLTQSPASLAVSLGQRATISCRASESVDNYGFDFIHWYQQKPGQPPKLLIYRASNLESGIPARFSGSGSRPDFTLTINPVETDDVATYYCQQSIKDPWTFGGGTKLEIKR" property_name=OD450 reported="0.1 OD450"
